pEC50: −log10 of the molar value.
Below are pEC50 values recorded for Estrogen receptor (Homo sapiens).
Endpoint: pEC50

a = CCC(=C(c1ccc(N)cc1)c1ccc(NCC(N)=O)cc1)c1ccc([N+](=O)[O-])cc1
b = CC(=C(c1ccc(N)cc1)c1ccc(NCC(N)=O)cc1)c1ccc([N+](=O)[O-])cc1
Lower value of pEC50 belongs to which: a or b ? # reply format: chosen label
a
(a: 6.35, b: 6.78)

----------
# Target desc: UniProt Q92731
# Sequence (Q92731 whole entry): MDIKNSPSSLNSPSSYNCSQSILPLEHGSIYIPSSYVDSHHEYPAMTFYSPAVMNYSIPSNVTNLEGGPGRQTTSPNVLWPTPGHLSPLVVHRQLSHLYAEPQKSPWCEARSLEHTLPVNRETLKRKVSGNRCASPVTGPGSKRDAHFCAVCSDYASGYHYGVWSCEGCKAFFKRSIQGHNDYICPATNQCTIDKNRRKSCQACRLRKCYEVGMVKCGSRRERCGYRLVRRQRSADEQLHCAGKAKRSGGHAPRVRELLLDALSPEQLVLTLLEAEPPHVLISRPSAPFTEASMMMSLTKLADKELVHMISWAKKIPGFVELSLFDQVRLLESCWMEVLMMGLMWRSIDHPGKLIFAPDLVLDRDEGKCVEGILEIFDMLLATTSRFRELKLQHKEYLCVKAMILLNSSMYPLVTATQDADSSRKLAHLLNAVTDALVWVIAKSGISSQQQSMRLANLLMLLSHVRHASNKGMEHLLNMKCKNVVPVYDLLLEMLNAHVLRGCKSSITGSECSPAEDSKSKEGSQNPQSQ
# Protocol text: Displacement of fluorescent ES2 from recombinant human ERbeta at 100 uM after 2 hrs in absence of light by fluorometric analysis relative to control
Endpoint: inhibition (%)

Some compounds with known inhibition results, for comparison:
>  <Given smiles>
CC/C(=C(/c1ccc(O)cc1)c1ccc(OCC(N)=O)cc1)c1ccccc1

>  <inhibition / %>
71

$$$$
>  <Given smiles>
CCC(=C(c1ccc(O)cc1)c1ccc(OCC(N)=O)cc1)c1ccc([N+](=O)[O-])cc1

>  <inhibition / %>
0

$$$$
>  <Given smiles>
CC(=C(c1ccc(O)cc1)c1ccc(O)cc1)c1ccc([N+](=O)[O-])cc1

>  <inhibition / %>
55

$$$$
>  <Given smiles>
CCC(=C(c1ccc(N)cc1)c1ccc(N)cc1)c1ccc(N)cc1

>  <inhibition / %>
76

$$$$
>  <Given smiles>
CCC(=C(c1ccc(O)cc1)c1ccc(O)cc1)c1ccc([N+](=O)[O-])cc1

>  <inhibition / %>
66

$$$$

1 = CC(=C(c1ccc(N)cc1)c1ccc(N)cc1)c1ccc(N)cc1
2 = CC(=C(c1ccc(O)cc1)c1ccc(OCC(N)=O)cc1)c1ccc([N+](=O)[O-])cc1
Select the item whose inhibition value is smaller, choosing between 1 and 2 . Answer with the label corresponding to your selection.
2
